- Test system: BHK-21 cells
- Protocol details: inhibition of BHK-21 cell proliferation (CCK-8, optical density at 450 nm)
- Format: cell-based
- Measurement conditions: Mesocricetus auratus, inhibition ratio of cell proliferation, 48 hours after dosing, CCK-8
- Method: Taking BHK-21 cells which in exponential growth phase, collecting and counting the cells which had digestive transfer culture after fusion growth 85-95%, adjusting the cell density to 2×10^4 cells per milliliter, seeding the cells into 96-well plates, 100 μl/well, the cells were incubated in a 5% CO2 incubator at 37° C. The upper clear liquid of the 96-well plates was removed after the cells adhering to the wall 24 hours. […]
Record form. Attribute: IC50. Fill in for each entry.
Enter your answer as a number in µM; do not include the unit.

q: Data request, read-out IC50, for Cc1cc(=O)n(-c2ccc(N3CCOCC3)c(F)c2)c(CCCOc2cccc(F)c2)n1
a: 500

q: Please give the result for CCCCCCNc1ccc(-n2c(C)nc(C)cc2=O)cc1F too.
a: 300

q: Please give the result for COc1cccc(OCc2nc(C)cc(=O)n2-c2ccc(N3CCOCC3)c(F)c2)c1 too.
a: 80

q: Please give the result for Cc1cc(=O)n(-c2ccc(-n3cccc3)c(F)c2)c(C)n1 too.
a: 560

q: Please give the result for CCCCN(CCCC)c1ccc(-n2c(C)nc(C)cc2=O)cc1F too.
a: 190
